- target-desc: trypsin
- measurement-protocol: phage TRF ELISA; GlyAla (Pro3Gly, Arg4Ala) mutant against the clone
property: % reduction in binding signal (%)
Use % as the unit, but write only the number.

Given the entry KB_B12 (scFv, V domains shown) VH: EVQLVESGGGLVRPGGSLRLSCAASGFTFSSYAMSWVRQAPGKGLEWVSAISGSGGSTYYADSVKGRFTISRDNTKNSLYLQMTSLRADDTAFYYCVKDFGPGYGTGWFDYWGPGTLVTVSS VL: TQPPSVSEAPRQRVTITCGERPCPRILMRCKQDSDCLAGCVCGPNGFCGANNWYQQLPGSSPTTVIYEDNQRPSGVPDRFSGSIDSSSNSASLTISGLKTEDEADYYCQSYDSSNQVFGGGTKVTVLG , report its measured % reduction in binding signal.
97

# input binder: KB_A03 (scFv, V domains shown) VH: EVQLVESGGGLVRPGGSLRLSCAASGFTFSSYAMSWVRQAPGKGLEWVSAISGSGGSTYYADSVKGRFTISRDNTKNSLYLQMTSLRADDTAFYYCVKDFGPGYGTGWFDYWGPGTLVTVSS VL: AVNWYQQLPGKAPKLLINAADRCPRILMRCKQDSDCLAGCVCGPNGFCGTNSGVPDRFSGSSSGNTASLTITGAQAEDEADYYCNSRDSSGNNWVFGGGTKVTVLG ; wanted: its % reduction in binding signal
90
